Measured TFE3 %, listed per entry.
- Tested on: endogenous TFE3
- Assay remarks: TFE3 nuclear translocation, immunocytochemistry high-content imaging
- Format: cell-based
- Particulars: PKIS2 primary screening
Answer with a number only, understood to be in %.

Some entries whose results are on file:
Query: What does the record list as TFE3 % for COc1cc(Nc2nccc(N3CCC(NS(=O)(=O)c4ccc(NC(C)=O)cc4)CC3)n2)cc(OC)c1OC [GSK1379825] ?
Response: 12.08

Query: Report TFE3 % for CCS(=O)(=O)c1ccc(OC)c(Nc2nccc(-c3c(-c4cccc(NC(=O)c5c(F)cccc5F)c4)nn4ncccc34)n2)c1 [UNC10225342A] please.
Response: 13.07

Query: Look up TFE3 %: COc1ccc(CNC(=O)NC2CCN(c3ccnc(Nc4cc(OC)c(OC)c(OC)c4)n3)C2)cc1 (stereo not drawn) [GSK1379748]
Response: 7.30

Query: For the molecule shown here, Fc1ccc(-c2nc[nH]c2-c2ccncc2)cc1 [UNC10225418A] , give the reported TFE3 %.
Response: 16.61

Query: Fill in the blank: the reported TFE3 % of NCCNS(=O)(=O)c1ccc(-c2ccnc3[nH]ccc23)cc1 [UNC10225023A] is ____.
Response: 9.07

Query: Can you share its TFE3 %? I mean this molecule: CN1CCN(CCNc2nc3ccc(Oc4ccc(NC(=O)Nc5cc(C(F)(F)F)ccc5F)cc4)cc3[nH]2)CC1 [GW768504]
Response: 12.94

Query: # query: TFE3 % of entry COc1cc2ncn(-c3cc(OCc4ccncc4)c(C(N)=O)s3)c2cc1OC [UNC10225069A]
Response: 7.35

Query: // lookup TFE3 % for Cc1ccc(C)c(NC(=O)NCCNc2ccnc(Nc3ccc(F)cc3)n2)c1 [GSK1379878]
Response: 7.01

***
Query: Value lookup for TFE3 %; key = COC(=O)C(NC(=O)NC1CCN(c2ccnc(Nc3ccc(F)cc3)n2)C1)c1ccccc1 (stereo not drawn) [GSK1379712]
Response: 6.91

Query: Could you tell me which TFE3 % is on file for COc1ccc(COc2cc(-n3cnc4ccccc43)sc2C(N)=O)cc1 [UNC10225127A] ?
Response: 11.50

Query: Reported TFE3 %, molecule c1ccc(-c2n[nH]cc2Nc2ccnc3ccccc23)nc1 [UNC10225048A] : ____
Response: 9.11

Query: Sample Nc1cccc(-c2ccc3c(N)n[nH]c3c2)c1 [GSK2193613] — what was its TFE3 %?
Response: 9.08

Query: Which TFE3 % is listed for [2H]C([2H])(c1cccc(C(F)(F)F)c1C)n1ccn2c(=O)nc(N3CCOCC3)cc12 [UNC10243860A] ?
Response: 12.75

Query: // lookup TFE3 % for Cl.Cl.NCC(C(=O)Nc1cc(Br)c(-c2ccnc3[nH]ccc23)s1)c1ccccc1 (stereo not drawn) [UNC10225027A]
Response: 26.86

Query: // returns reported TFE3 % for input CNc1cc(-c2ccc3c(N)n[nH]c3c2)nc(N)n1 [GSK2224810]
Response: 7.03

---

- Test system: SH-SY5Y cells
- Particulars: PKIS2 primary screening, DQ Red BSA spot count
Field: class. Source value: DQ Spot. Ranges: low-valued = under 90, mid-valued = from 90 up to 100, high-valued = 100 and over

Query: Category of COc1ccc(Nc2nccc(N3CCC(NC(=O)c4cc5ccccc5s4)C3)n2)cc1 (stereo not drawn) :
Response: low-valued

Query: Which class is correct for the following molecule? COc1ccc(-c2nc3n(c2-c2ccncc2)CCC3)cc1 [UNC10225334B]
Response: mid-valued

Query: Returns: class label. Input: Nc1ncnc2occ(-c3ccc4c(c3)CCN4C(=O)Cc3cc(F)ccc3F)c12 [UNC10225000A]
Response: high-valued

Others:
Query: Tag the class for Cc1cc(-c2ccc3c(c2)CC[C@@H](N[C@@H](C)c2ccccc2)C3)cnc1N
Response: low-valued

Query: Exam item: assign Nc1ncc(-c2ccc3nccc(-c4ccncc4)c3c2)cc1S(=O)(=O)N1CCCCC1 [UNC10225117A] to the correct category.
Response: low-valued

Query: Class label required: Cl.Cl.NC[C@H](CC1CCCCC1)NC(=O)c1ccc(-c2ccnc3[nH]ccc23)s1 [UNC10225041A]
Response: low-valued

Query: Class (by measured DQ Spot) for COc1cc(Nc2nccc(N3CCC(NC(=O)Nc4cccc(C(C)=O)c4)C3)n2)cc(OC)c1OC (stereo not drawn)
Response: mid-valued

Query: Which class does Nc1nc(-c2ccc3c(N)n[nH]c3c2)cc(N2CCCCC2)n1 fall in?
Response: high-valued

Query: Quick check: band for Clc1cc(Cl)cc(Nc2ccnc(Nc3cc(Cl)cc(Cl)c3)n2)c1
Response: high-valued

Query: Into which bin does this molecule go? Oc1cc(Nc2ccnc3cc(I)ccc23)ccc1F [UNC10225441A]
Response: high-valued

---

- Test system: SH-SY5Y cells
- Assay remarks: Nuclear count from microscopy images (cellular growth and toxicity)
- Particulars: PKIS2 primary screening
Below, each entry is listed with its recorded Nuclear Count.
Please reply with the number alone, leaving off any unit.

Worked cases, answers included:
Query: Reported Nuclear Count for COc1cc(Nc2nccc(N3CCC(NC(=O)c4cccc(C#N)c4)C3)n2)cc(OC)c1OC (stereo not shown) : what is it?
Response: 92.57

Query: What does the data say about its Nuclear Count? Entry: COc1ccc(Nc2nccc(N3CCC(NC(=O)C(C)c4ccc(Cl)cc4)C3)n2)cc1 (stereo not shown)
Response: 119.80

Query: What measured Nuclear Count goes with CC(C)Nc1cc(-c2ccc3c(N)n[nH]c3c2)nc(N)n1 ?
Response: 122.37

Please find the next compound below.
Query: // returns reported Nuclear Count for input CC(C)c1nc(-c2cccc(NS(=O)(=O)c3c(F)cccc3F)c2F)c(-c2ccnc(Nc3ccc(N4CCOCC4)nc3)n2)s1 [UNC10224991A]
Response: 54.49

---

# TFE3 % values compiled below
- System: endogenous TFE3
- Assay remarks: TFE3 nuclear translocation, immunocytochemistry high-content imaging
- Format: cell-based
- Particulars: PKIS2 primary screening
Please reply with the bare figure in % and do not write the unit itself.

For orientation, consider the following solved cases.
Query: If you can, please state the reported TFE3 % value of Nc1cccc(-c2ccc3c(N)n[nH]c3c2)n1 .
Response: 14.87

Query: State the recorded TFE3 % for this entry: CC(C)(C)c1ccc(-n2cnc3c(N)ncnc32)cc1 [UNC10225367A]
Response: 12.53

Next:
Query: TFE3 % for CNc1nc(-c2ccc3c(N)n[nH]c3c2)cc(N2C[C@@H](C(=O)Nc3ccccc3)CC[C@H]2C)n1 ?
Response: 12.86

---

- Tested on: SH-SY5Y cells
- Assay remarks: Nuclear count from microscopy images (cellular growth and toxicity)
- Particulars: PKIS2 primary screening
Threshold check on Nuclear Count: strictly below 100 is YES; on or above 100 is NO.

Use these answered entries as a reference point.
Query: Is 100 strictly greater than the molecule's reported Nuclear Count? molecule: Cc1ccc(C(=O)Nc2ccc(Nc3ccnc4cc(-c5nccs5)ccc34)cc2O)cc1.Cl [UNC10225432A]
Response: YES

Query: Please state whether Nuclear Count is below 100 for CN(c1ccc(NC(=O)N2CCN(CCCN3CCOCC3)CC2)cc1)c1ccnc(Nc2ccc(CS(C)(=O)=O)cc2)n1 [GW830899]
Response: NO

Query: Answer whether the molecule O=C(Nc1cccc(-c2nn3ccccc3c2-c2ccnc(Nc3cccc(F)c3)n2)c1)c1c(F)ccc(F)c1Cl [UNC10225081A] has Nuclear Count strictly less than 100
Response: YES

Query: Regarding CN(C)CCOc1ccc(-c2cc(-c3ccc(Cl)c(O)c3)c(-c3ccncc3)[nH]2)cc1.Cl.Cl [UNC10225395A] , kindly confirm whether its Nuclear Count is beneath 100.
Response: YES

Query: # TODO verify Nuclear Count < 100 strictly for this molecule: COc1ccc(Nc2nccc(N3CCC(NC(=O)Nc4cccc(C(C)=O)c4)C3)n2)cc1 (centres unmarked) [GSK1379731]
Response: NO

Query: hey, is Nuclear Count for CCn1c(-c2ccccn2)nc2cnccc21 [UNC10225156A] lower than 100 or not?
Response: YES

Query: Please indicate whether the reported Nuclear Count of Cn1cc(-c2ccc3c(c2)CCN3C(=O)Cc2cccc(C(F)(F)F)c2)c2c(N)ncnc21 [UNC10225165A] is strictly below 100.
Response: NO

Query: Lab note: Nuclear Count threshold 100. Does this molecule come in strictly under it? O=c1cc(N2CCOCC2)nc2n(Cc3cccc(F)c3)ccn12 [UNC10225332A]
Response: YES

***
Query: # check: Nuclear Count < 100 for Nc1nccc(-c2c(-c3ccc(F)cc3)ncn2C2CCN(CC(F)(F)F)CC2)n1 [UNC10225173A]
Response: NO
